target: Thioredoxin reductase 1, cytoplasmic (Rattus norvegicus) (UniProt O89049); experiment: qHTS Assay for Inhibitors of Mammalian Selenoprotein Thioredoxin Reductase 1 (TrxR1): qHTS; settings: recombinant rTrxR1, NADPH fluorescence consumption, selenite substrate; series mostly up to 114 µM; note: nearly all actives have a fitted effect of over 65% in size
Sequence (O89049 whole entry, looked up): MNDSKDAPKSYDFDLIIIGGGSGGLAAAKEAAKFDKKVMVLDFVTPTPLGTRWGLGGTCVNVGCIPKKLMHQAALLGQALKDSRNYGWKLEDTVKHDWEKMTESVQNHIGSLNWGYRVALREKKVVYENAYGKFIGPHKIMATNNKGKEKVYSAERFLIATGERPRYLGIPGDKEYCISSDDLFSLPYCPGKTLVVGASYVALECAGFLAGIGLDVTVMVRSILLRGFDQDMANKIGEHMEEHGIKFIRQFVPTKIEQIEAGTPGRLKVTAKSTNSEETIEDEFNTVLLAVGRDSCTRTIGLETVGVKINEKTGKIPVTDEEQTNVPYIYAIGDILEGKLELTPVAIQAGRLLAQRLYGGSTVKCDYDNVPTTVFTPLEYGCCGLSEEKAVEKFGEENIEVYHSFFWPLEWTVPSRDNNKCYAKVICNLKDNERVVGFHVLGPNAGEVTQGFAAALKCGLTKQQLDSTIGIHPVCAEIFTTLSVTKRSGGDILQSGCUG
The whole screen tested about 390,000 compounds, of which about 4,000 (1%) were called active. Not shown: some 4% with an inconclusive outcome. Calls come from the whole dose curve; as a rule, active = well fitted inhibition curve with a large enough effect; inconclusive = small, poorly fitted or top-dose-only effect; inactive = no such curve, though single readings can be large or run the other way. The sample holds actives, similar compounds and a random draw of the others, so the mix is not that of the screen.
Labels: y = active, n = inactive

>>> discretelabel("O=c1cc(-c2ccccc2)[nH]c2nc(Cl)ccc12")
"n"
>>> discretelabel("Cc1ccc(C2C=C(c3ccc(Cl)cc3)Nc3nc(NC(=O)CCC(=O)O)nn32)cc1 (stereo not drawn)")
"n"
>>> discretelabel("Cc1ccc(Cl)cc1NC(=O)CSc1nccn1C")
"n"
>>> discretelabel("COc1ccc(CN2CCC(n3nccc3NC(=O)CCCc3ccccc3)CC2)cc1C")
"n"
>>> discretelabel("O=S(=O)(Nc1ccc2nc(-c3ccco3)[nH]c2c1)c1ccccc1")
"y"
>>> discretelabel("Cc1cc(O)ccc1NC1=CC(=O)CC(C)(C)C1")
"n"
>>> discretelabel("O=S(=O)(Nc1ccc2nc(-c3cccc(Cl)c3)oc2c1)c1ccccc1")
"n"
>>> discretelabel("O=C(c1cnn2c1NC(=C1CC1)C=C2C(F)F)N1CCc2ccccc2C1")
"n"
>>> discretelabel("Cc1ccc(/C=C/C(=O)OCC(=O)NCc2ccc(Cl)cc2)o1")
"n"
>>> discretelabel("O=C(NC(Cc1ccccc1)C(=O)O)/C(=C\\c1ccccc1)NC(=O)c1ccco1 (stereo not drawn)")
"n"
>>> discretelabel("CO[C@H]1O[C@@H]2O[C@@]3(C)CC[C@@H]4[C@@H](C)CC[C@@H]([C@H]1C)[C@@]24OO3")
"n"
>>> discretelabel("CCn1cc(CN2CCC(n3nccc3NC(=O)CCCc3ccccc3)CC2)c(C)n1")
"n"
>>> discretelabel("O=C1/C(=C\\c2ccc(O)cc2)CCC1CNc1ccc(Cl)cc1 (stereo not drawn)")
"y"
>>> discretelabel("CC(=O)Nc1ccc(NC(=O)CSc2nnc3c4cc(Br)ccc4n(C)c3n2)cc1")
"n"
>>> discretelabel("Cc1ccc(C)c(S(=O)(=O)c2nnn3c2nc(N2CCOCC2)c2sccc23)c1")
"n"
>>> discretelabel("COc1ccc(OC)c(CNC(=O)c2c3c(nc4ccccc24)C(=O)N(C2CCCCC2)C3)c1")
"n"
>>> discretelabel("Cc1c(NC(=O)Cc2ccccc2)cccc1-c1nc2cccnc2s1")
"n"
>>> discretelabel("Cc1ccc(CN2CCC(n3nccc3NC(=O)CCCc3ccccc3)CC2)o1")
"y"
>>> discretelabel("CN(Cc1ccccc1)c1ccc(/C=C/c2ccnc3ccccc23)cc1")
"n"
>>> discretelabel("CC1CCCCN1Cc1c(O)ccc2c(=O)c(-c3cccc(Cl)c3)c(C(F)(F)F)oc12 (stereo not drawn)")
"n"
>>> discretelabel("Cc1cc(C)c2oc(C(=O)Nc3c(C(=O)Nc4ccccc4)oc4ccccc34)cc(=O)c2c1")
"n"
>>> discretelabel("CSc1nc(-c2ccc(F)cc2)nc2c1Cc1c(CO)cnc(C)c1O2")
"n"
>>> discretelabel("CCOc1ccc(C(C)NC(=O)CN2C(=O)NC3(CCCCC3)C2=O)cc1OCC (stereo not drawn)")
"n"
>>> discretelabel("Cc1ccc(Cn2cnc3c(cnn3C(C)(C)C)c2=O)c(F)c1")
"n"
>>> discretelabel("CC1(C)CC(=O)C=C(NCc2ccncc2)C1")
"n"
>>> discretelabel("CCOc1ccc(CNC(=O)c2ccc3nc(CC)c(CC)nc3c2)cc1OC")
"n"
>>> discretelabel("CN(CCC#N)c1ccc(C=O)cc1")
"n"
>>> discretelabel("Cc1ccc(Cl)cc1N(C)C(=O)C1CCCN(c2ncnc3onc(-c4ccc(F)cc4)c23)C1 (stereo not drawn)")
"n"
>>> discretelabel("COc1ccccc1NC(=O)CSc1nnc(-c2ccoc2C)n1CCc1ccccc1")
"n"
>>> discretelabel("O=C1Oc2ccccc2C(=O)/C1=C/c1ccccc1O")
"y"
>>> discretelabel("COc1cc(Cl)c(C)cc1NC(=O)CSc1nnc(-c2ccco2)n1CC(C)C")
"y"
>>> discretelabel("CC(C)(C)c1ccc(C(=O)C[N+]2(C)CCCc3ccccc32)cc1 (stereo not drawn)")
"n"
>>> discretelabel("CCOc1ccc(C(C)=O)cc1COC(=O)CNC(=O)c1cccs1")
"y"
>>> discretelabel("c1ccc(C2CNCc3c2ccc2ccccc32)cc1 (stereo not drawn)")
"y"
>>> discretelabel("Cc1cc(C)nc(NNC2=CC(=O)CC(C)(C)C2)n1")
"y"
>>> discretelabel("O=C(CSc1nc2ccccc2nc1Cc1ccccc1)N1CCCCC1")
"n"
>>> discretelabel("COc1ccc(C(=O)COC(=O)CNC(=O)c2cccs2)cc1Br")
"n"
>>> discretelabel("O=C(NCc1ccccn1)[C@]1(C(F)(F)F)C[C@H](CCc2ccccc2)CCCO1")
"n"
>>> discretelabel("CCOc1ccc(NC(=S)NC(=O)/C=C/c2ccc(OC)cc2)c([N+](=O)[O-])c1")
"n"
>>> discretelabel("COc1ccccc1/C=C/c1nc(C#N)c(NC(C)c2ccccc2)o1 (stereo not drawn)")
"n"
>>> discretelabel("CCc1ccccc1NS(=O)(=O)c1ccc2nc(-c3ccccc3)[nH]c2c1")
"n"
>>> discretelabel("Cc1cc(N2CCN(c3cccc(C(F)(F)F)c3)CC2)n2nc(-c3ccccc3)nc2n1")
"n"
>>> discretelabel("Cc1cccc(Cn2c(=O)n(CCC(=O)NCCc3ccc(Cl)cc3)c(=O)c3sccc32)c1")
"n"
